Measured IC50, listed per entry for reference.
# Target Entity: recombinant human MMP-1 (Homo sapiens, UniProt P03956)
# Construct: made in house; host or cells: transfected HT-1080 cells (provided by Dr. Howard Welgus, Washington University)
# Sequence (P03956 100-469): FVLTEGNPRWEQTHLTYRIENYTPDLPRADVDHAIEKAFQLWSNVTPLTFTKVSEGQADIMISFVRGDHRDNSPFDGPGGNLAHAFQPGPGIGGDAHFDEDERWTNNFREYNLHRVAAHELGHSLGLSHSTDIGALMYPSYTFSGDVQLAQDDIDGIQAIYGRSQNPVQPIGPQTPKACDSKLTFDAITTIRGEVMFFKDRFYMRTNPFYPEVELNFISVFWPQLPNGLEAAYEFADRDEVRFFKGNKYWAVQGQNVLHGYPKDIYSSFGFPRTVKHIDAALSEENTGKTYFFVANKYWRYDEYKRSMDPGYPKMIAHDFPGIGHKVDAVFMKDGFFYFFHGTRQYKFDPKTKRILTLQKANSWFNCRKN
# Assay Remarks: In vitro metalloprotease inhibition, fluorogenic peptide assay (MMP-1)
# Format: biochemical
# Condition Description: recombinant human MMP-1, APMA activated; fluorogenic MCA peptide substrate 4 uM; pH 7.5, room temperature

These recorded examples may help you get a feel for the data.
Compound | Value Reported
C[C@H](CS)N(Cc1ccccc1)S(=O)(=O)CCCSc1ccccc1 | > 10 µM
C[C@H](CS)NS(=O)(=O)c1ccc(Cc2ncc(C(F)(F)F)cc2Cl)s1 | > 10 µM
NC(=O)[C@H](CS)N(CCN1CCOCC1)S(=O)(=O)c1ccc(NC(=O)c2ccccc2)cc1 | > 10 µM
CC(=O)SC[C@@H](C)N(CCN1CCOCC1)S(=O)(=O)c1ccc(Oc2ccc(CCC(=O)OC(C)(C)C)cc2)cc1 | > 10 µM

# compound `COc1cccc(-c2ccc(S(=O)(=O)N(C)[C@H](C)CS)cc2)c1` ; its IC50 = > 10 µM

The compound identified as C[C@H](CS)N(C)S(=O)(=O)c1ccc(Sc2ccccc2)cc1 [Example 41C] registered its IC50 at > 10 µM

In plain terms, `CCCCCc1ccc(S(=O)(=O)N[C@@H](CS)C(N)=O)cc1` has a documented IC50 of > 10 µM

Record CCCCCOc1ccc(S(=O)(=O)N(C)[C@H](C)CS)cc1 [Example 39C] . Reported IC50: > 10 µM

So, `CCCCOc1ccc(S(=O)(=O)N(CCC(C)C)[C@@H](CS)C(N)=O)cc1` ? Its IC50 was > 10 µM

Per the records, this compound ( `C[C@H](CSC(=O)c1cccs1)N(CCN1CCOCC1)S(=O)(=O)c1ccc(Sc2ccccc2)cc1` ) has IC50 equal to > 10 µM

For record COc1ccc(S(=O)(=O)N2CCCC2CS)cc1 (stereo not drawn) the listed IC50 is > 10 µM

# IC50 of `Cc1ccccc1-c1ccc(S(=O)(=O)N(C)[C@H](C)CS)cc1` = > 10 µM

For record `CCC(C)(C)c1ccc(S(=O)(=O)N[C@H](C)CS)cc1` the listed IC50 is > 10 µM

For `CCCCOc1ccc(S(=O)(=O)N[C@@H](CS)C(=O)N[C@@H](Cc2ccccc2)C(N)=O)cc1` the compound record lists IC50 as > 10 µM

----------
# Target Entity: recombinant human MMP-13 (Homo sapiens, UniProt P45452)
# Construct: made in house
# Assay Remarks: In vitro metalloprotease inhibition, fluorogenic peptide assay (MMP-13)
# Assay type: biochemical
# Condition Description: recombinant human MMP-13, APMA activated; fluorogenic MCA peptide substrate 4 uM; pH 7.5, room temperature
Recorded Endpoint: IC50

Check out these entries, answers already filled in.
Compound | IC50
CCc1ccc(S(=O)(=O)N[C@H](C)CS)cc1 | 570 nM
CC(C)c1ccc(S(=O)(=O)N[C@H](C)CS)cc1 | 2300 nM
C[C@H](CS)NS(=O)(=O)c1ccc(Oc2cccc(Cl)c2C#N)cc1 | 500 nM
NC(=O)[C@H](CS)N(CCN1CCOCC1)S(=O)(=O)c1ccc(NC(=O)c2ccc(Br)cc2)cc1 | 1.1 nM
COc1ccc(S(=O)(=O)N(CCCSC(C)=O)Cc2ccccc2)cc1 | > 10000 nM
COc1ccc(S(=O)(=O)N2CCC(S)C2)cc1 (stereo not drawn) | 250 nM

For `C[C@H](CS)NS(=O)(=O)c1ccc(Br)s1` the compound record lists IC50 as 9000 nM

IC50 recorded for this compound, `COC(=O)[C@H](CSSC[C@H](NS(=O)(=O)c1ccc(OC)cc1)C(=O)OC)NS(=O)(=O)c1ccc(OC)cc1` , is 200 nM

IC50 reported for this compound `NC(=O)[C@H](CS)NS(=O)(=O)c1ccc(I)cc1` : 20 nM

get_value(item= `CCCCN([C@H](C)CS)S(=O)(=O)c1ccc(OC)cc1` , readout=IC50) returns 31.3 nM

The compound identified as C[C@H](CS)NS(=O)(=O)c1ccccc1 (single isomer, unassigned) [Example 151] registered its IC50 at > 10000 nM

Just so you know, measured IC50 for `CCCCOc1ccc(S(=O)(=O)N[C@@H](CS)C(=O)N[C@@H](Cc2ccccc2)C(N)=O)cc1` came out at 1100 nM

Recorded result, C[C@H](CS)N(CCN1CCOCC1)S(=O)(=O)c1ccc(Oc2ccc(CCC(=O)O)cc2)cc1 [Example 117] , IC50: 15 nM
